# TESTED_SYSTEM: human P2X4 (Homo sapiens)
# ASSAY_PROTOCOL: Human P2X4 HEK Cell FLIPR Assay
# CONDITION_INFO: HEK293 cells, agonist Bz-ATP at EC80; individual values listed where some fall outside detection range
pIC50: −log10 of the molar value.
MEASUREMENT_KIND: pIC50

NS(=O)(=O)c1cc(NC(=O)Cc2ccc(F)cc2Cl)ccc1-c1cnn(C2CC2)c1 | 7.03

A = Cc1ccc(CC(=O)Nc2ccc(-c3cncc(C(F)(F)F)c3)c(S(N)(=O)=O)c2)c(F)c1
B = Cc1cc(-c2ccc(NC(=O)Cc3ccccc3Cl)cc2S(N)(=O)=O)cnc1Cl
Please tell me which of the two, A or B , has the higher reported pIC50 value. Selection: enter the item's label.
A

====

# TESTED_SYSTEM: human P2X4 (Homo sapiens)
# Sequence (Q99571 1-388): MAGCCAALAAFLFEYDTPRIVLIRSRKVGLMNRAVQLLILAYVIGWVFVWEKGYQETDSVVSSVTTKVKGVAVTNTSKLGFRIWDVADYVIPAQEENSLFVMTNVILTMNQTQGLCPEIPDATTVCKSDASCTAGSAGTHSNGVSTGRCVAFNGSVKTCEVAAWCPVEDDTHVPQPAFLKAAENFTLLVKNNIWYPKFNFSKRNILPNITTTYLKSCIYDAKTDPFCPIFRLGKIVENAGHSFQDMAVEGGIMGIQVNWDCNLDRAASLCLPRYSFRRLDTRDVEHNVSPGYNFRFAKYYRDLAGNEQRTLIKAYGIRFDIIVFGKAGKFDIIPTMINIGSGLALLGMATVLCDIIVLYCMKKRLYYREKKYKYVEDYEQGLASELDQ
# ASSAY_PROTOCOL: Human P2X4 HEK Cell FLIPR Assay
# Format: cell-based
# CONDITION_INFO: HEK293, HEK293 cells, agonist Bz-ATP at EC80; percentage of maximal inhibition; read-out: Human P2X4 HEK Cells (FLIPR Assay) avg Efficacy [%]
MEASUREMENT_KIND: Emax (%)

Cc1ccc(CC(=O)Nc2ccc(-c3nnc(C)o3)c(S(N)(=O)=O)c2)cc1 [Example 526] | 51
NS(=O)(=O)c1cc(NC(=O)Cc2c(F)cc(F)cc2Cl)ccc1-n1cc(C(F)(F)F)cn1 [Example 143] | 84
NS(=O)(=O)c1cc(NC(=O)Cc2ccccc2Cl)ccc1-c1nc(C(F)(F)F)cs1 [Example 434] | 50
N#Cc1cnn(-c2ccc(NC(=O)Cc3ccc(C(F)F)cc3)cc2S(N)(=O)=O)c1 [Example 219] | 65

====

# TESTED_SYSTEM: human P2X4 (Homo sapiens, UniProt Q99571)
# ASSAY_PROTOCOL: Human P2X4 HEK Cell FLIPR Assay
# Assay type: cell-based
# CONDITION_INFO: HEK293, HEK293 cells, agonist Bz-ATP at EC80; percentage of maximal inhibition; read-out: Human P2X4 HEK Cells (FLIPR Assay) avg Efficacy [%]
MEASUREMENT_KIND: Emax (%)

In the examples that follow, each entry is paired with its recorded Emax.
N#Cc1cnn(-c2ccc(NC(=O)Cc3c(F)cc(F)cc3Cl)cc2S(N)(=O)=O)c1 | 84
CN(C)C(=O)c1cnn(-c2ccc(NC(=O)Cc3ccccc3Cl)cc2S(N)(=O)=O)c1 | 92
COCCn1cc(-c2ccc(NC(=O)Cc3ccccc3F)cc2S(N)(=O)=O)cn1 | 110
NS(=O)(=O)c1cc(NC(=O)Cc2ccccc2Cl)ccc1-n1cc(NCC(F)(F)F)cn1 | 101
NS(=O)(=O)c1cc(NC(=O)Cc2ccccc2Cl)ccc1-c1ccns1 | 87
NS(=O)(=O)c1cc(NC(=O)Cc2ccc(Cl)cc2)ccc1-n1cc(C(F)(F)F)cn1 | 35
COc1ccccc1CC(=O)Nc1ccc(-c2cnn(C(F)F)c2)c(S(N)(=O)=O)c1 | 104
COc1ncn(-c2ccc(NC(=O)Cc3ccccc3Cl)cc2S(N)(=O)=O)n1 | 72

I = CC(C)(O)c1ncc(-c2ccc(NC(=O)Cc3ccccc3Cl)cc2S(N)(=O)=O)s1
II = Cc1nc(-c2ccc(NC(=O)Cc3ccccc3Cl)cc2S(N)(=O)=O)cn1C
Please tell me which of the two, I or II , has the higher reported Emax value. Selection: enter the item's label.
I
(I: 77%, II: 51%)

I = NS(=O)(=O)c1cc(NC(=O)Cc2c(F)cccc2Cl)ccc1-c1cnn(C2CC2)c1
II = NS(=O)(=O)c1cc(NC(=O)Cc2ccccc2F)ccc1-c1cnn(C2CCNCC2)c1
Please tell me which of the two, I or II , has the higher reported Emax value. Selection: enter the item's label.
I
